System: NCI-H2141 (Small Cell Lung Carcinoma)
Experiment: combination Emax (second highest fraction inhibited in the dose matrix, 72 h); higher = more inhibition; extreme values may be limits of the assay
In this section, each of the compounds is paired with its reported combination Emax.
Respond numerically, and do not add a unit to the figure.

Recorded results for 2 compounds are shown here.
COMPOUND | ASSAYED TARGET | combination Emax
CN(CCO)CC[C@H](CSc1ccccc1)Nc1ccc(S(=O)(=O)NC(=O)c2ccc(N3CCC([C@@H](O)c4ccccc4-c4ccc(Cl)cc4)CC3)cc2)cc1S(=O)(=O)C(F)(F)F [AZD4320] + C[C@@H](Nc1cc(F)cc(F)c1)c1cc(C(=O)N(C)C)cc2c(=O)cc(N3CCOCC3)oc12 [AZD8186] (first compound max 1 µM, 7x7, partner max 3 µM) | NCI-H2141 (Small Cell Lung Carcinoma) | 0.886
COc1nnc2ccc(N3CCC(c4ccc(OCCN5CCN(C)C(=O)[C@H]5C)cc4)CC3)nn12 [AZD5153] + CN(CC[C@H](CSC1=CC=CC=C1)NC2=C(C=C(C=C2)S(=O)(=O)NC(=O)C3=CC=C(C=C3)N4CCC(CC4)[C@H](C5=CC=CC=C5C6=CC=C(C=C6)Cl)O)S(=O)(=O)C(F)(F)F)CCO [AZD4320] (first compound max 1 µM, 7x7, partner max 1 µM) | NCI-H2141 (Small Cell Lung Carcinoma) | 0.941

Task: combination Emax for COc1cccc(OCCCN)c1-c1cc(Nc2cnc(C#N)cn2)n[nH]1 [Prexasertib] + O=C(c1cc(Cc2n[nH]c(=O)c3ccccc23)ccc1F)N1CCN(C(=O)C2CC2)CC1 [Olaparib] (first compound max 1 µM, 7x7, partner max 10 µM) ?
Result: 0.617

---

In this section, each of the molecules is paired with its reported combination Emax.
System: NCI-H1666 (Lung Adenocarcinoma)
Assay: combination Emax (second highest fraction inhibited in the dose matrix, 72 h); higher = more inhibition; extreme values may be limits of the assay
Respond numerically, and do not add a unit to the figure.

Task: combination Emax for CN(CCO)CC[C@H](CSc1ccccc1)Nc1ccc(S(=O)(=O)NC(=O)c2ccc(N3CCC([C@@H](O)c4ccccc4-c4ccc(Cl)cc4)CC3)cc2)cc1S(=O)(=O)C(F)(F)F [AZD4320] + CC(=O)O[C@H]1C(=O)[C@@]2(C)[C@H]([C@H](OC(=O)c3ccccc3)[C@]3(O)C[C@H](OC(=O)[C@H](O)[C@@H](NC(=O)c4ccccc4)c4ccccc4)C(C)=C1C3(C)C)[C@]1(OC(C)=O)CO[C@@H]1C[C@@H]2O [Paclitaxel] (first compound max 1 µM, 7x7, partner max 3 µM) ?
Result: 0.841

Task: Let us now turn to CN(CCO)CC[C@H](CSc1ccccc1)Nc1ccc(S(=O)(=O)NC(=O)c2ccc(N3CCC([C@@H](O)c4ccccc4-c4ccc(Cl)cc4)CC3)cc2)cc1S(=O)(=O)C(F)(F)F [AZD4320] + C[C@@H](Nc1cc(F)cc(F)c1)c1cc(C(=O)N(C)C)cc2c(=O)cc(N3CCOCC3)oc12 [AZD8186] (first compound max 1 µM, 7x7, partner max 3 µM)
Result: 0.42

Task: Let us now turn to CC(=O)Nc1cccc(-n2c(=O)n(C3CC3)c(=O)c3c(Nc4ccc(I)cc4F)n(C)c(=O)c(C)c32)c1 [Trametinib] + Cc1nc(-c2cn3c(n2)-c2ccc(-c4cnn(C(C)(C)C(N)=O)c4)cc2OCC3)n(C(C)C)n1 [Taselisib] (first compound max 1 µM, 7x7, partner max 10 µM)
Result: 0.988

Task: Let us now turn to CC1(C)CCC(CN2CCN(c3ccc(C(=O)NS(=O)(=O)c4ccc(NCC5CCOCC5)c([N+](=O)[O-])c4)c(Oc4cnc5[nH]ccc5c4)c3)CC2)=C(c2ccc(Cl)cc2)C1 [Venetoclax] + C=CCn1c(=O)c2cnc(Nc3ccc(N4CCN(C)CC4)cc3)nc2n1-c1cccc(C(C)(C)O)n1 [AZD1775] (first compound max 1 µM, partner max 1 µM)
Result: 0.343

Task: Let us now turn to N#Cc1cnc(Nc2cc(NC[C@H]3CNCCO3)c(C(F)(F)F)cn2)cn1 [SRA737] + O=c1[nH]cc(F)c(=O)[nH]1 [5-Fluorouracil] (first compound max 10 µM, 7x7, partner max 20 µM)
Result: 0.381

Task: Let us now turn to CC1(C)CCC(CN2CCN(c3ccc(C(=O)NS(=O)(=O)c4ccc(NCC5CCOCC5)c([N+](=O)[O-])c4)c(Oc4cnc5[nH]ccc5c4)c3)CC2)=C(c2ccc(Cl)cc2)C1 [Venetoclax] + CS(=O)(=O)CCNCc1ccc(-c2ccc3ncnc(Nc4ccc(OCc5cccc(F)c5)c(Cl)c4)c3c2)o1 [Lapatinib] (first compound max 1 µM, 7x7, partner max 10 µM)
Result: 0.568

---

Test system: COLO-824 (Breast Carcinoma)
Assay: combination Emax (second highest fraction inhibited in the dose matrix, 72 h); higher = more inhibition; extreme values may be limits of the assay
In this section, each of the compounds is paired with its reported combination Emax.
Respond numerically, and do not add a unit to the figure.

Recorded results for 2 compounds are shown here.
COMPOUND | combination Emax
C[C@@H](c1ccc2nccn2c1)n1nnc2ncc(-c3cnn(C)c3)nc21 [Savolitinib] + Cc1c2c(nn1C)CSCc1cc(n(C)n1)CSc1cc(c3ccccc3c1)OCCCc1c(C(=O)O)n(C)c3c-2c(Cl)ccc13 [AZD5991] (first compound max 1 µM, 7x7, partner max 1 µM) | 0.356
CC1(C)CCC(CN2CCN(c3ccc(C(=O)NS(=O)(=O)c4ccc(NCC5CCOCC5)c([N+](=O)[O-])c4)c(Oc4cnc5[nH]ccc5c4)c3)CC2)=C(c2ccc(Cl)cc2)C1 [Venetoclax] + C1CN(CCC1(C(=O)N[C@@H](CCO)C2=CC=C(C=C2)Cl)N)C3=NC=NC4=C3C=CN4 [Capivasertib] (first compound max 1 µM, 7x7, partner max 3 µM) | 0.881

Now let's try a different one.
Task: combination Emax for COc1cccc(OCCCN)c1-c1cc(Nc2cnc(C#N)cn2)n[nH]1 [Prexasertib] + C[C@@H]1COCCN1C2=NC(=NC(=C2)C3(CC3)[S@](=N)(=O)C)C4=C5C=CNC5=NC=C4 [AZD6738] (first compound max 1 µM, 7x7, partner max 10 µM) ?
Result: 0.796

---

System: NCI-H1666 (Lung Adenocarcinoma)
Experiment: combination Emax (second highest fraction inhibited in the dose matrix, 72 h); higher = more inhibition; extreme values may be limits of the assay
Tick Yes if combination Emax is 0.3 or greater. Tick No if combination Emax is less than 0.3.

Task: For this molecule, is measured combination Emax 0.3 or higher? Cn1cnc2c(F)c(Nc3ccc(Br)cc3Cl)c(C(=O)NOCCO)cc21 [Selumetinib] + C[C@@H]1COCCN1C2=NC(=NC(=C2)C3(CC3)[S@](=N)(=O)C)C4=C5C=CNC5=NC=C4 [AZD6738] (first compound max 10 µM, 7x7, partner max 10 µM)
Result: Yes

Task: Let us now turn to COc1nnc2ccc(N3CCC(c4ccc(OCCN5CCN(C)C(=O)[C@H]5C)cc4)CC3)nn12 [AZD5153] + C=CCn1c(=O)c2cnc(Nc3ccc(N4CCN(C)CC4)cc3)nc2n1-c1cccc(C(C)(C)O)n1 [AZD1775] (first compound max 1 µM, partner max 1 µM)
Result: Yes

Task: Let us now turn to COc1cc2c(cc1OCCCCCOc1cc3c(cc1OC)C(=O)N1C=C(C)C[C@H]1C=N3)N=C[C@@H]1CC(C)=CN1C2=O [SG3199] + O=C(c1cc(Cc2n[nH]c(=O)c3ccccc23)ccc1F)N1CCN(C(=O)C2CC2)CC1 [Olaparib] (first compound max 0.001 µM, 7x7, partner max 10 µM)
Result: No

Task: Let us now turn to CC1(C)CCC(CN2CCN(c3ccc(C(=O)NS(=O)(=O)c4ccc(NCC5CCOCC5)c([N+](=O)[O-])c4)c(Oc4cnc5[nH]ccc5c4)c3)CC2)=C(c2ccc(Cl)cc2)C1 [Venetoclax] + CCN(CCO)CCCOc1ccc2c(Nc3cc(CC(=O)Nc4cccc(F)c4)[nH]n3)ncnc2c1 [AZD2811] (first compound max 1 µM, 7x7, partner max 1 µM)
Result: No

Task: Let us now turn to C=CCn1c(=O)c2cnc(Nc3ccc(N4CCN(C)CC4)cc3)nc2n1-c1cccc(C(C)(C)O)n1 [AZD1775] + C[C@@H]1COCCN1C2=NC(=NC(=C2)C3(CC3)[S@](=N)(=O)C)C4=C5C=CNC5=NC=C4 [AZD6738] (first compound max 1 µM, partner max 10 µM)
Result: Yes

Task: Let us now turn to N#Cc1cnc(Nc2cc(NC[C@H]3CNCCO3)c(C(F)(F)F)cn2)cn1 [SRA737] + C=CCn1c(=O)c2cnc(Nc3ccc(N4CCN(C)CC4)cc3)nc2n1-c1cccc(C(C)(C)O)n1 [AZD1775] (first compound max 10 µM, partner max 1 µM)
Result: No

Task: Let us now turn to NC1(C(=O)N[C@@H](CCO)c2ccc(Cl)cc2)CCN(c2ncnc3[nH]ccc23)CC1 [Capivasertib] + CC(C)n1c(=O)n(C)c2cnc3cc(F)c(-c4ccc(OCCCN5CCCCC5)nc4)cc3c21 [AZD1390] (first compound max 10 µM, 7x7, partner max 0.3 µM)
Result: Yes
